These measurements were taken from patent US20240010722A1.

Examples of binders with documented Insulin polyreactivity score follow.
biological target: Insulin; test: polyreactivity ELISA on insulin coat, 100 nM
Sequence (P01308 25-54, chain 1 of 2): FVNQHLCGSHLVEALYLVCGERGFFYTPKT
Sequence (P01308 90-110, chain 2 of 2): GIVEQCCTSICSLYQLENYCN
Respond using a number only.

These recorded examples may help you get a feel for the data.
Binder	Insulin polyreactivity score
MIAB167 (antibody, V domains shown) VH: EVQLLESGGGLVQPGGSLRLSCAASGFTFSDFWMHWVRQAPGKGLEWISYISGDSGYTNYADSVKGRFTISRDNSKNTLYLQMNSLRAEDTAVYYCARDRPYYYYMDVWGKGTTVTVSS VL: DIQMTQSPSSLSASVGDRVTITCRASQSVSRSLKWYQQKPGKAPKLLIYAASSLQSGVPSRFSGSGSGTDFTLTISSLQPEDFATYYCQQYKSYPVTFGQGTKVEIK	29.6
MIAB130 (antibody, V domains shown) VH: EVQLLESGGGLVQPGGSLRLSCAASGFTFSDFWMHWVRQAPGKGLEWISYISGDSGYTNYADSVKGRFTISRDNSKNTLYLQMNSLRAEDTAVYYCARDRPYYYQMDVWGKGTTVTVSS VL: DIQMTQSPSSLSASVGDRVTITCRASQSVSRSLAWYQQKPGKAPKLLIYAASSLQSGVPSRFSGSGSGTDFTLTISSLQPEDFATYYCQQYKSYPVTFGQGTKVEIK	3.26
MIAB164 (antibody, V domains shown) VH: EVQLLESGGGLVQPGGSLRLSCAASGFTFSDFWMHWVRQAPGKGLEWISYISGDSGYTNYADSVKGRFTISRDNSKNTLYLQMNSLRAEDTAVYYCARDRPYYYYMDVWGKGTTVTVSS VL: DIQMTQSPSSLSASVGDRVTITCRASQSVSRSLTWYQQKPGKAPKLLIYAASSLQSGVPSRFSGSGSGTDFTLTISSLQPEDFATYYCQQYKSYPVTFGQGTKVEIK	7.07
MIAB161 (antibody, V domains shown) VH: EVQLLESGGGLVQPGGSLRLSCAASGFTFSDFWMHWVRQAPGKGLEWISYISGDSGYTNYADSVKGRFTISRDQSKNTLYLQMNSLRAEDTAVYYCARDRPYYYYMDVWGKGTTVTVSS VL: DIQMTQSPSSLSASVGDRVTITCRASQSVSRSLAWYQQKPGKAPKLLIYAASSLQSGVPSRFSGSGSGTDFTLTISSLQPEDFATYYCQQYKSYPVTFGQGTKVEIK	5

Shifting focus to the binder that follows.
Exercise: Return reported Insulin polyreactivity score. Input binder: MIAB163 (antibody, V domains shown) VH: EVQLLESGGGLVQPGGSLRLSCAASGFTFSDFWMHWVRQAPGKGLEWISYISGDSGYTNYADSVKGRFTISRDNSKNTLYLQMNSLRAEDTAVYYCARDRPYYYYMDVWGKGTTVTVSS VL: DIQMTQSPSSLSASVGDRVTITCRASQSVSRSLDWYQQKPGKAPKLLIYAASSLQSGVPSRFSGSGSGTDFTLTISSLQPEDFATYYCQQYKSYPVTFGQGTKVEIK
Key: 18.5
